STUDY_SYSTEM: T1, human LAIR1 extracellular domain (ECD) protein with 6 HIS tag at the C-terminus (human, UniProt Q6GTX8 22-165)
T1 construct: Produced recombinantly in HEK293 cells; the whole entry is named here; also called LAIR1 ECD; LAIR1-ECD
T1 chain: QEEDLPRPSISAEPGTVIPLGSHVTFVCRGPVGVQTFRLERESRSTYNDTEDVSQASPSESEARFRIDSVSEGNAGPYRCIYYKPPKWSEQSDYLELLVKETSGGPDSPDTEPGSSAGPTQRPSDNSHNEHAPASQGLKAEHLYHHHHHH
ASSAY_PROCEDURE: ELISA, LAIR1 ECD coated
ASSAY_METRIC: EC50 (read off the curve)

// EC50 (read off the curve) lookup, key: LA-35 (antibody, V domains shown, Rabbit monoclonal IgG; also called mAb LA-35) VH: EQSVKESGGRLVTPGTPLTLTCTVSGIDLSYYSMGWFRQAPGKGLEWIGVISSSDSTYYANWAKGRFTISKTSTTVDLKIAGPTTEDTATYFCARVLANSYNAFNLWGPGSLVTISS VL: ELDLTQTPASVSEPVGGTVTIKCQASQSVGSRLAWYQQKPGQPPKLLIYKASTLASGVPSRFKGSGSGTQFTLTMSDLECADAATYYCQCTNISSAYLGAFGGGTEVEIK
~10 ng/mL
